- Tested on: G-401 tumor spheroids, viability % test/control
- protocolNotes: Anticancer human tumor G-401 cell line growth inhibition;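 further: spheroids exposed to compound for 7 days; 100% = DMSO vehicle-treated spheroids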
- conditionsUsed: second compound 30 pM; first compound 0.1 µM; active compounds read low; spheroids with HUVEC and MSC
Reported viability, T/C by item:
readoutLabel: viability, T/C

[[record]]
compound = "COc1cc(C)[nH]c(=O)c1CN1CCc2c(Cl)cc(C(OC)C3COC3)c(Cl)c2C1=O (stereo unspecified) + COc1cc2c(cc1O)CCNC21CSC2c3c(OC(C)=O)c(C)c4c(c3C(COC1=O)N1C(O)C3Cc5cc(C)c(OC)c(O)c5C(C21)N3C)OCO4"
testedon = "G-401 tumor spheroids, viability % test/control"
endpointvalue = "50.9%"

[[record]]
compound = "Cc1cc(C)c(CNC(=O)c2cc(-c3ccc(CN4CCOCC4)cc3)cc3c2cnn3C2CCCC2)c(=O)[nH]1 + COc1cc2c(cc1O)CCNC21CSC2c3c(OC(C)=O)c(C)c4c(c3C(COC1=O)N1C(O)C3Cc5cc(C)c(OC)c(O)c5C(C21)N3C)OCO4"
testedon = "G-401 tumor spheroids, viability % test/control"
endpointvalue = "109%"

[[record]]
compound = "CC(C)n1c(=O)n(C)c2cnc3cc(F)c(-c4ccc(OCCCN5CCCCC5)nc4)cc3c21 + COc1cc2c(cc1O)CCNC21CSC2c3c(OC(C)=O)c(C)c4c(c3C(COC1=O)N1C(O)C3Cc5cc(C)c(OC)c(O)c5C(C21)N3C)OCO4"
testedon = "G-401 tumor spheroids, viability % test/control"
endpointvalue = "35.7%"

[[record]]
compound = "[2H]c1nc(C)nc([2H])c1-c1cc(NC[C@@H](C)c2cccc3c(C(=O)NC)ccnc23)ncn1 + COc1cc2c(cc1O)CCNC21CSC2c3c(OC(C)=O)c(C)c4c(c3C(COC1=O)N1C(O)C3Cc5cc(C)c(OC)c(O)c5C(C21)N3C)OCO4"
testedon = "G-401 tumor spheroids, viability % test/control"
endpointvalue = "103%"

[[record]]
compound = "CC1COCCN1c1cc(-c2ccnn2C)c2ccnc(-c3ccn[nH]3)c2n1 (stereo unspecified) + COc1cc2c(cc1O)CCNC21CSC2c3c(OC(C)=O)c(C)c4c(c3C(COC1=O)N1C(O)C3Cc5cc(C)c(OC)c(O)c5C(C21)N3C)OCO4"
testedon = "G-401 tumor spheroids, viability % test/control"
endpointvalue = "22.1%"

[[record]]
compound = "COc1ccc([C@@H](O)c2cc(-c3ncnc4cc(N5CCOCC5)ccc34)c(F)cc2Cl)nn1 + COc1cc2c(cc1O)CCNC21CSC2c3c(OC(C)=O)c(C)c4c(c3C(COC1=O)N1C(O)C3Cc5cc(C)c(OC)c(O)c5C(C21)N3C)OCO4"
testedon = "G-401 tumor spheroids, viability % test/control"
endpointvalue = "99.2%"


---

compounds and their reported viability, T/C
- Test system: G-401 tumor spheroids, viability % test/control
- protocolNotes: Anticancer human tumor G-401 cell line growth inhibition;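 further: spheroids exposed to compound for 7 days; 100% = DMSO vehicle-treated spheroids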
- conditionsUsed: second compound 0.3 µM; first compound 0.1 µM; active compounds read low; spheroids with HUVEC and MSC
readoutLabel: viability, T/C

[[record]]
compound = "COc1cc(C)[nH]c(=O)c1CN1CCc2c(Cl)cc(C(OC)C3COC3)c(Cl)c2C1=O (stereo not drawn) + CC[C@@]1(O)C(=O)OCc2c1cc1n(c2=O)Cc2cc3c(CN(C)C)c(O)ccc3nc2-1"
endpointvalue = "5.58%"

[[record]]
compound = "Cc1cc(C)c(CNC(=O)c2cc(-c3ccc(CN4CCOCC4)cc3)cc3c2cnn3C2CCCC2)c(=O)[nH]1 + CC[C@@]1(O)C(=O)OCc2c1cc1n(c2=O)Cc2cc3c(CN(C)C)c(O)ccc3nc2-1"
endpointvalue = "5.25%"

[[record]]
compound = "[2H]c1nc(C)nc([2H])c1-c1cc(NC[C@@H](C)c2cccc3c(C(=O)NC)ccnc23)ncn1 + CC[C@@]1(O)C(=O)OCc2c1cc1n(c2=O)Cc2cc3c(CN(C)C)c(O)ccc3nc2-1"
endpointvalue = "4.82%"


---

- System: G-401 tumor spheroids, viability % test/control
- protocolNotes: Anticancer human tumor G-401 cell line growth inhibition; active means viability on the fitted dose curve at most 10% of control; inactive means the rest;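 further: spheroids exposed to compound for 7 days; 100% = DMSO vehicle-treated spheroids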
- conditionsUsed: second compound 0.0003 µM; first compound 3 µM; spheroids with HUVEC and MSC
Labels: t for active, f for inactive

[[record]]
compound = "Cc1sc2c(c1C)C(c1ccc(Cl)cc1)=NC(CC(=O)Nc1ccc(O)cc1)c1nnc(C)n1-2 (centres undefined) + COc1cc2c(cc1O)CCNC21CSC2c3c(OC(C)=O)c(C)c4c(c3C(COC1=O)N1C(O)C3Cc5cc(C)c(OC)c(O)c5C(C21)N3C)OCO4"
testedon = "G-401 tumor spheroids, viability % test/control"
cat = "t"

[[record]]
compound = "CNCc1ccc(-c2cc(-c3nc(-c4ccc(S(=O)(=O)C(C)C)cc4)cnc3N)on2)cc1 + COc1cc2c(cc1O)CCNC21CSC2c3c(OC(C)=O)c(C)c4c(c3C(COC1=O)N1C(O)C3Cc5cc(C)c(OC)c(O)c5C(C21)N3C)OCO4"
testedon = "G-401 tumor spheroids, viability % test/control"
cat = "f"

[[record]]
compound = "O=C(c1cc(Cc2n[nH]c(=O)c3ccccc23)ccc1F)N1CCN(C(=O)C2CC2)CC1 + COc1cc2c(cc1O)CCNC21CSC2c3c(OC(C)=O)c(C)c4c(c3C(COC1=O)N1C(O)C3Cc5cc(C)c(OC)c(O)c5C(C21)N3C)OCO4"
testedon = "G-401 tumor spheroids, viability % test/control"
cat = "f"

[[record]]
compound = "Cn1ncnc1[C@H]1c2n[nH]c(=O)c3cc(F)cc(c23)N[C@@H]1c1ccc(F)cc1 + COc1cc2c(cc1O)CCNC21CSC2c3c(OC(C)=O)c(C)c4c(c3C(COC1=O)N1C(O)C3Cc5cc(C)c(OC)c(O)c5C(C21)N3C)OCO4"
testedon = "G-401 tumor spheroids, viability % test/control"
cat = "t"


---

- System: G-401 tumor spheroids, viability % test/control
- protocolNotes: Anticancer human tumor G-401 cell line growth inhibition;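 further: spheroids exposed to compound for 7 days; 100% = DMSO vehicle-treated spheroids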
- conditionsUsed: second compound 1 µM; first compound 10 µM; active compounds read low; spheroids with HUVEC and MSC
Under this convention, true (1) denotes viability, T/C strictly below 80% and false (0) denotes viability, T/C at or above 80%.

[[record]]
molecule = "Cc1cc(C)c(CNC(=O)c2cc(-c3ccc(CN4CCOCC4)cc3)cc3c2cnn3C2CCCC2)c(=O)[nH]1 + Cn1nnc2c(C(N)=O)ncn2c1=O"
testedon = "G-401 tumor spheroids, viability % test/control"
cat = "true (1)"

[[record]]
molecule = "CC(C)n1c(=O)n(C)c2cnc3cc(F)c(-c4ccc(OCCCN5CCCCC5)nc4)cc3c21 + Cn1nnc2c(C(N)=O)ncn2c1=O"
testedon = "G-401 tumor spheroids, viability % test/control"
cat = "true (1)"

[[record]]
molecule = "CC1COCCN1c1cc(-c2ccnn2C)c2ccnc(-c3ccn[nH]3)c2n1 (stereo unspecified) + Cn1nnc2c(C(N)=O)ncn2c1=O"
testedon = "G-401 tumor spheroids, viability % test/control"
cat = "true (1)"

[[record]]
molecule = "COc1cc(C)[nH]c(=O)c1CN1CCc2c(Cl)cc(C(OC)C3COC3)c(Cl)c2C1=O (stereo unspecified) + Cn1nnc2c(C(N)=O)ncn2c1=O"
testedon = "G-401 tumor spheroids, viability % test/control"
cat = "true (1)"

[[record]]
molecule = "[2H]c1nc(C)nc([2H])c1-c1cc(NC[C@@H](C)c2cccc3c(C(=O)NC)ccnc23)ncn1 + Cn1nnc2c(C(N)=O)ncn2c1=O"
testedon = "G-401 tumor spheroids, viability % test/control"
cat = "false (0)"

[[record]]
molecule = "COc1ccc([C@@H](O)c2cc(-c3ncnc4cc(N5CCOCC5)ccc34)c(F)cc2Cl)nn1 + Cn1nnc2c(C(N)=O)ncn2c1=O"
testedon = "G-401 tumor spheroids, viability % test/control"
cat = "true (1)"


---

Below: a set of entries, each annotated with reported viability, T/C.
- System: G-401 tumor spheroids, viability % test/control
- protocolNotes: Anticancer human tumor G-401 cell line growth inhibition;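 further: spheroids exposed to compound for 7 days; 100% = DMSO vehicle-treated spheroids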
- conditionsUsed: second compound 0.3 µM; first compound 0.1 µM; active compounds read low; spheroids with HUVEC and MSC
readoutLabel: viability, T/C (%)

[[record]]
molecule = "COc1ccc([C@@H](O)c2cc(-c3ncnc4cc(N5CCOCC5)ccc34)c(F)cc2Cl)nn1 + CC[C@@]1(O)C(=O)OCc2c1cc1n(c2=O)Cc2cc3c(CN(C)C)c(O)ccc3nc2-1"
readoutunit = "%"
endpointvalue = 4.63

[[record]]
molecule = "CC(C)n1c(=O)n(C)c2cnc3cc(F)c(-c4ccc(OCCCN5CCCCC5)nc4)cc3c21 + CC[C@@]1(O)C(=O)OCc2c1cc1n(c2=O)Cc2cc3c(CN(C)C)c(O)ccc3nc2-1"
readoutunit = "%"
endpointvalue = 5.27

[[record]]
molecule = "CC1COCCN1c1cc(-c2ccnn2C)c2ccnc(-c3ccn[nH]3)c2n1 (stereo not drawn) + CC[C@@]1(O)C(=O)OCc2c1cc1n(c2=O)Cc2cc3c(CN(C)C)c(O)ccc3nc2-1"
readoutunit = "%"
endpointvalue = 5.5

